Source listed as the NIST ThermoML archive (doi:10.1016/j.fluid.2012.11.008).

assay-name: refractive index (Na D-line) (dimensionless)
condition-info: 293.15 K; 101.33 kPa; Liquid; Standard Abbe refractometry
measurement-label: refractive index
Could you keep your reply to the number by itself?

Below, 5 molecules whose answers are already recorded.
CCC=C(C)C ... 1.4003
CO ... 1.3287
CCOC(C)=O [ethyl acetate] ... 1.3724
CCCCCC ... 1.3752
CCO ... 1.3618

Request: Consider the molecule CCCCCCC and give its measured refractive index.
Response: 1.3878

Request: Now consider CCC(C)(C)OC .
Response: 1.3886

Request: Now consider COC(C)(C)C .
Response: 1.3689

Request: Now consider CC#N .
Response: 1.3439
